Target: T1, PSA(67-79)-G0F (human, also: Asn3 N-glycosylated with octasaccharide carrying alpha-1,6 core fucose (G0F))
T1 construct: Synthetic glycopeptide (3.9 kDa as SPR analyte), made on Sieber Amide resin; For the ELISAs a biotinylated form was used (glutamic acid derivative with a PEG3-biotin side chain at the N-terminus); also called PSA(67-79)-GOF; glycopeptide of Formula Ib
T1 peptide: IRN(G0F)KSVILLGRHS-NH2
Experiment: SPR, Biacore 8k, 37 C, antibody captured by anti-rabbit Fc, 900 nM peptide injection
Protocol: 30 μg/ml of a Fcγ-fragment binding, polyclonal goat anti-Rabbit IgG (GARb-Fcγ, Jackson Laboratories) in 10 mM sodium acetate buffer (pH 4.5) was pre-concentrated in all 16 flow cells, and up to 10000 RU GARb-Fcγ were immobilized according to the manufacturer's instructions using EDC/NHS chemistry. […] The antibody Capture Level (CL) was quantified in response units (RU) for each antibody. […]
Ends that are not written are not given here. * marks the point of attachment. G0F = octasaccharide N-glycan with alpha-1,6 core fucose (Formula Ib, linkages Formula Ic), CC(=O)N[C@@H]1[C@@H](O)[C@H](O[C@@H]2O[C@H](CO)[C@@H](O[C@@H]3O[C@H](CO[C@H]4O[C@H](CO)[C@@H](O)[C@H](O)[C@@H]4O[C@@H]4O[C@H](CO)[C@@H](O)[C@H](O)[C@H]4NC(C)=O)[C@@H](O)[C@H](O[C@H]4O[C@H](CO)[C@@H](O)[C@H](O)[C@@H]4O[C@@H]4O[C@H](CO)[C@@H](O)[C@H](O)[C@H]4NC(C)=O)[C@@H]3O)[C@H](O)[C@H]2NC(C)=O)[C@@H](CO[C@@H]2O[C@@H](C)[C@@H](O)[C@@H](O)[C@@H]2O)O[C@H]1*
Each entry below carries its recorded BL (Binding Late).
Lab book: enter the figure in RU, no units written.

Recorded BL (Binding Late), per entry:
binder | endpoint-name | reported-measurement
2E9 (antibody, V domains shown, Rabbit monoclonal IgG (150 kDa); also called anti-1,6fucPSA antibody 2E9) VH: QSLEESGGDLVKPGASLTLTCTASGFSFSAGYDMCWVRQAPGKGLEWIACIYADGSGSTYYANWAKGRFTISLASSTTVTLQMTGLTAADTATYFCAREGADGPDYGYAAFSLWGPGTLVTVSS VL: DVVMTQTPASVEAAVGGTVTIKCQASQSISNYFSWYQQKPGQPPKLLIYKASTLASGVPSRFKGSGSGTEFTLTISDLECADAATYYCQSFYGSVTSDYGGFAFGGGTEVVVK | BL (Binding Late) | 27
2H9 (antibody, V domains shown, Rabbit monoclonal IgG (150 kDa); also called anti-1,6fucPSA antibody 2H9) VH: QSLEESGGDLVKPGASLTLTCTASGFSFSSGYDMCWVRQAPGKGPEWIACIYADGSGSTYYASWAKGRFTISMTSSTTVTLQMTRLTAADTATYFCAREGADDPNYGYAALRLWGPGTLVTVSS VL: DIVMTQTPASVEAAVGGTVTIKCQASQSISNYLAWYQQKPGQPPKLLIYKTSTLASGVPSRFKGSGSGTEFTLTISDLECADAATYYCQSFYGSVSSDYGGFAFGGGTEVVVK | BL (Binding Late) | 54

Kindly consider the entry below.
Suppose we examine the binder 3B10 (antibody, V domains shown, Rabbit monoclonal IgG (150 kDa); also called anti-1,6fucPSA antibody 3B10) VH: QSLEESGGGLVKPGGTLTLTCKASGFSFSSGYDMCWVRQAPGKGLEWIACIYADGSDNTYYASWAKGRFTISKTSSTTVTLQMTRLTAADTATYFCAREGADNPNYGYAALRLWGPGTLVTVSS VL: DIVMTQTPASVEAPVGGTVTIKCQATQSISSYLSWYQQKPGQPPKLLIYKTSTLASGVPSRFKGSGSGTEFTLTISDLECANAATYYCQSYYGSISSDYGGFAFGGGTEVVVK ; what BL (Binding Late) value has been reported?
31
